Data provenance is ChEMBL document CHEMBL3431459.

testedSystem: Carnitine O-palmitoyltransferase 1, liver isoform (Rattus norvegicus)
Sequence (P32198 whole entry): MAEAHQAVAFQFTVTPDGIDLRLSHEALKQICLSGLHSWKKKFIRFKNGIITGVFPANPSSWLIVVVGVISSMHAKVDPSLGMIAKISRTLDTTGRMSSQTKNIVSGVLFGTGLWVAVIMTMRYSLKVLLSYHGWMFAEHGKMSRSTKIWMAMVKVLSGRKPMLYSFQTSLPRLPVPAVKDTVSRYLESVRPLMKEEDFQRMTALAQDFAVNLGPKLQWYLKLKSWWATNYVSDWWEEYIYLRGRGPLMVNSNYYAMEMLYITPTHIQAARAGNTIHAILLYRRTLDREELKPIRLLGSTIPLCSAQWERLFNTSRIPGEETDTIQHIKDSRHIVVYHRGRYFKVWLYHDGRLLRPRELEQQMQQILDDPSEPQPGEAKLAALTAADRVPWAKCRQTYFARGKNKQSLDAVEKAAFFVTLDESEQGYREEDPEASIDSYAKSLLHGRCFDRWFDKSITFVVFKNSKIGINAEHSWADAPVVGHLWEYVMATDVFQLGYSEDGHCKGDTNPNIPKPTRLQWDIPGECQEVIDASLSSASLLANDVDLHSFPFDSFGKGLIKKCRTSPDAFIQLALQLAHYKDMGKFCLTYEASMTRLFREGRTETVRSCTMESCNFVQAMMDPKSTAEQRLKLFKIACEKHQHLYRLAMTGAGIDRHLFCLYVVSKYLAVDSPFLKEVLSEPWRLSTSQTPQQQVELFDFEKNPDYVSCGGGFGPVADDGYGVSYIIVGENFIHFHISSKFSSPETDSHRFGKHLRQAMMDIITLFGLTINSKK
measurementNotes: SUPPLEMENTARY: Inhibition of Carnitine palmitoyltransferase 1, liver isoform
I'd appreciate it if you could supply pIC50 values for the items below.
# pIC50 is unitless: minus log10 of the molar concentration; print number only

Please provide the recorded pIC50 for O=C(COc1ccccc1)N1CCCC[C@@H]1c1noc(-c2ccc3ncsc3c2)n1 , tested on Carnitine O-palmitoyltransferase 1, liver isoform (Rattus norvegicus).
6.83

Please provide the recorded pIC50 for COc1ccc(Cl)cc1S(=O)(=O)N1COc2ccc(C(=O)Nc3nc(CC(=O)O)cs3)cc21 , tested on Carnitine O-palmitoyltransferase 1, liver isoform (Rattus norvegicus).
7.74

Please provide the recorded pIC50 for O=C(COc1ccccc1)N1CCCC[C@@H]1c1nc(-c2ccc(=O)[nH]c2)no1 , tested on Carnitine O-palmitoyltransferase 1, liver isoform (Rattus norvegicus).
5.93

Please provide the recorded pIC50 for COc1ccc(Cl)cc1CN1C(=O)OC(C)(C)c2ccc(C(=O)Nc3nc(CC(=O)O)cs3)cc21 , tested on Carnitine O-palmitoyltransferase 1, liver isoform (Rattus norvegicus).
7.22

Please provide the recorded pIC50 for COc1ccc(Cl)cc1S(=O)(=O)N1CCOc2c(Cl)cc(C(=O)Nc3ncc(CC(=O)O)s3)cc21 , tested on Carnitine O-palmitoyltransferase 1, liver isoform (Rattus norvegicus).
7.43

Please provide the recorded pIC50 for O=C(COc1ccccc1)N1CCCC[C@@H]1c1noc(-c2cnc3ccccc3n2)n1 , tested on Carnitine O-palmitoyltransferase 1, liver isoform (Rattus norvegicus).
6.63

Please provide the recorded pIC50 for COc1ccc(Cl)cc1S(=O)(=O)N1CCc2ccc(C(=O)Nc3nc(CC(=O)O)cs3)cc21 , tested on Carnitine O-palmitoyltransferase 1, liver isoform (Rattus norvegicus).
7.82

Please provide the recorded pIC50 for COc1ccc(Cl)cc1S(=O)(=O)c1nn(CC(=O)O)c2ccc(C(=O)Nc3ccccc3)cc12 , tested on Carnitine O-palmitoyltransferase 1, liver isoform (Rattus norvegicus).
7.61

Please provide the recorded pIC50 for O=C(COc1ccccc1)N1CCCC[C@@H]1c1nc(-c2ccc(F)c(F)c2)n[nH]1 , tested on Carnitine O-palmitoyltransferase 1, liver isoform (Rattus norvegicus).
6.22

Please provide the recorded pIC50 for O=C(O)c1cccc(-c2nc([C@H]3CCCCN3C(=O)COc3ccccc3)cs2)c1 , tested on Carnitine O-palmitoyltransferase 1, liver isoform (Rattus norvegicus).
6.28

Please provide the recorded pIC50 for COc1ccc(Cl)cc1-c1csc([C@H]2CCCCN2C(=O)COc2ccccc2)n1 , tested on Carnitine O-palmitoyltransferase 1, liver isoform (Rattus norvegicus).
6.12

Please provide the recorded pIC50 for COc1ccc(Cl)cc1S(=O)(=O)c1nn(C)c2ccc(C(=O)Nc3ccccc3)cc12 , tested on Carnitine O-palmitoyltransferase 1, liver isoform (Rattus norvegicus).
7.53

Please provide the recorded pIC50 for O=C([C@H]1CCCCN1C(=O)COc1ccccc1)N1Cc2ccc(O[C@@H]3CCOC3)cc2C1 , tested on Carnitine O-palmitoyltransferase 1, liver isoform (Rattus norvegicus).
7.38

Please provide the recorded pIC50 for COc1ccc(Cl)cc1S(=O)(=O)N1COc2c(C)cc(C(=O)Nc3ccc(C(=O)O)cc3)cc21 , tested on Carnitine O-palmitoyltransferase 1, liver isoform (Rattus norvegicus).
7.10

Please provide the recorded pIC50 for COc1ccc(Cl)cc1CN1C(=O)C(C)(C)c2ccc(C(=O)Nc3nc(CC(=O)O)cs3)cc21 , tested on Carnitine O-palmitoyltransferase 1, liver isoform (Rattus norvegicus).
7.71

Please provide the recorded pIC50 for Cn1cc(S(=O)(=O)c2cccc(Cl)c2)c2cc(C(=O)Nc3ccc(C(=O)O)cc3)ccc21 , tested on Carnitine O-palmitoyltransferase 1, liver isoform (Rattus norvegicus).
7.95

Please provide the recorded pIC50 for COc1ccc(Cl)cc1S(=O)(=O)c1c[nH]c2ccc(C(=O)Nc3ccccc3)cc12 , tested on Carnitine O-palmitoyltransferase 1, liver isoform (Rattus norvegicus).
7.08

Please provide the recorded pIC50 for O=C(COc1ccccc1)N1CCCC[C@@H]1c1nc(-c2ccc(Br)s2)cs1 , tested on Carnitine O-palmitoyltransferase 1, liver isoform (Rattus norvegicus).
5.87

Please provide the recorded pIC50 for COc1cccc2c1CCN(C(=O)[C@H]1CCCCN1C(=O)COc1ccccc1)C2 , tested on Carnitine O-palmitoyltransferase 1, liver isoform (Rattus norvegicus).
6.33

====

testedSystem: Carnitine O-palmitoyltransferase 1, liver isoform (Rattus norvegicus, UniProt P32198)
Sequence (P32198 whole entry): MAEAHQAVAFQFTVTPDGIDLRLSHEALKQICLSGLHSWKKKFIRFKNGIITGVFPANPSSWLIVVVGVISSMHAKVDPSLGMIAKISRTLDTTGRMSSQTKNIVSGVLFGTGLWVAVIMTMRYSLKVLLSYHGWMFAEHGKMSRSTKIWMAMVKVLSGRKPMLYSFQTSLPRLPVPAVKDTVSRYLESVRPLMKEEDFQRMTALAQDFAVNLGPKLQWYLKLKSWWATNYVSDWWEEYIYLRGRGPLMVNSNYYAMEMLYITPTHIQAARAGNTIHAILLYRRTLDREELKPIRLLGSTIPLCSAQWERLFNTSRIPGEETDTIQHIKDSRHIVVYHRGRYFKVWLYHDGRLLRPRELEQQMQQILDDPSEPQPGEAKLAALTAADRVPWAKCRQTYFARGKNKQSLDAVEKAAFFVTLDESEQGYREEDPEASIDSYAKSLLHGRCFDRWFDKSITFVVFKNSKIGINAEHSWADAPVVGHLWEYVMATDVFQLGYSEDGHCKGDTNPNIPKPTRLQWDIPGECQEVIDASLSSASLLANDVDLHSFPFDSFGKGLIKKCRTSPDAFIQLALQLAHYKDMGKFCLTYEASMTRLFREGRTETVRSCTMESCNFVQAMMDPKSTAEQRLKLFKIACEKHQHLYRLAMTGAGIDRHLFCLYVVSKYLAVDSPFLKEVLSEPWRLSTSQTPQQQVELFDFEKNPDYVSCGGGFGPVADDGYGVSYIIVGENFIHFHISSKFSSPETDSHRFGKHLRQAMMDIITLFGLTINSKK
measurementNotes: SUPPLEMENTARY: Inhibition of Carnitine palmitoyltransferase 1, liver isoform
I'd appreciate it if you could supply IC50 values for the items below.
Respond with the bare value in nM.

Look up IC50 for this molecule: COc1ccc(Cl)cc1S(=O)(=O)N1COc2c(Cl)cc(C(=O)Nc3ccc(C(=O)O)cc3)cc21
34.5

Look up IC50 for this molecule: CC(C)C(=O)Nc1cccc(-c2n[nH]c([C@H]3CCCCN3C(=O)COc3ccccc3)n2)c1
692

Look up IC50 for this molecule: COc1ccc(C)cc1S(=O)(=O)N1CCOc2ccc(C(=O)Nc3ccc(C(=O)O)c(F)c3)cc21
102

Look up IC50 for this molecule: O=C(O)Cc1ccc(NC(=O)c2ccc3ccn(S(=O)(=O)c4cccc(Cl)c4)c3c2)cc1
86.2

Look up IC50 for this molecule: O=C1Cc2cc(-c3noc([C@H]4CNCCN4C(=O)COc4ccccc4)n3)ccc2N1
306

Look up IC50 for this molecule: O=C(COc1ccccc1)N1CCCC[C@@H]1c1noc(-c2ccc3cnccc3n2)n1
305

Look up IC50 for this molecule: COc1ccc(Cl)cc1S(=O)(=O)Nc1cc(C(=O)Nc2ccccc2)ccc1CCC(=O)O
54.2

Look up IC50 for this molecule: COc1ccc(Cl)cc1S(=O)(=O)c1c2cc(C(=O)Nc3ccccc3)ccc2nn1C
381

Look up IC50 for this molecule: O=C(Nc1ccc(C(=O)O)c(Cl)c1)c1ccc2c(c1)N(S(=O)(=O)c1cc(Cl)cc(Cl)c1)CC2
65.1

Look up IC50 for this molecule: NC(=O)c1cccc(-c2noc([C@H]3CCCCN3C(=O)COc3ccccc3)n2)c1
156

Look up IC50 for this molecule: COc1ccc(Cl)cc1S(=O)(=O)N1COc2c(F)cc(C(=O)Nc3ccc(CC(=O)O)cc3)cc21
132

Look up IC50 for this molecule: COc1ccc(Cl)cc1S(=O)(=O)N1CCOc2ccc(C(=O)Nc3ccc(C(=O)O)c(Cl)c3)cc21
100

Look up IC50 for this molecule: COc1ccc(Cl)cc1S(=O)(=O)N1CCOc2c(Cl)cc(C(=O)Nc3ccc(CC(=O)O)cc3)cc21
100

Look up IC50 for this molecule: CCn1cc(S(=O)(=O)c2cc(Cl)ccc2OC)c2cc(C(=O)Nc3ccc(C(=O)O)cc3)ccc21
53.7

Look up IC50 for this molecule: O=C(COc1ccccc1)N1CCCC[C@@H]1c1nc(-c2ccc(Cl)cc2)cs1
1230

Look up IC50 for this molecule: O=C1Nc2ccc(-c3noc([C@H]4CCCCN4C(=O)COc4ccccc4)n3)cc2CO1
154

Look up IC50 for this molecule: CCN1C(=O)CC(C)(C)c2ccc(-c3nc([C@H]4CCCCN4C(=O)COc4ccccc4)no3)cc21
172

Look up IC50 for this molecule: CC(=O)NCc1cccc(-c2nc([C@H]3CCCCN3C(=O)COc3ccccc3)no2)c1
308

Look up IC50 for this molecule: O=C(COc1ccccc1)N1CCCC[C@@H]1c1noc(C2CCCC2)n1
106

Look up IC50 for this molecule: NC(=O)c1n[nH]c2cc(-c3noc([C@H]4CCCCN4C(=O)COc4ccccc4)n3)ccc12
1070

Look up IC50 for this molecule: O=C(COc1ccccc1)N1CCCC[C@@H]1c1nc(-c2ccc3nccn3c2)no1
334

Look up IC50 for this molecule: COc1ccc(Cl)cc1CN1C(=O)OC(C)(C)c2ccc(C(=O)Nc3ccc(C(=O)O)c(Cl)c3)cc21
50.8

Look up IC50 for this molecule: Cn1cc(Sc2cccc(Cl)c2)c2cc(C(=O)Nc3ccc(C(=O)O)cc3)ccc21
21.4

Look up IC50 for this molecule: COc1ccc(Cl)cc1S(=O)(=O)c1cn(CCC(=O)O)c2ccc(C(=O)Nc3ccccc3)cc12
3

Look up IC50 for this molecule: COc1ccc(Cl)cc1CN(C(=O)C(C)C)c1cc(C(=O)Nc2nc(CC(=O)O)cs2)ccc1Cl
440

Look up IC50 for this molecule: O=C(COc1ccccc1)N1CCCC[C@@H]1c1nc(-c2ccc3[nH]ncc3c2)n[nH]1
683

Look up IC50 for this molecule: COCCN(c1cc(C(=O)Nc2nc(CC(=O)O)cs2)cc2c1OCO2)S(=O)(=O)c1cc(Cl)ccc1OC
154

Look up IC50 for this molecule: COc1ccc(Cl)cc1S(=O)(=O)N1CCSc2ccc(C(=O)Nc3ccc(C(=O)O)cc3)cc21
56.9

Look up IC50 for this molecule: COc1ccc(Cl)cc1CN1C(=O)C(C)(C)c2ccc(C(=O)Nc3ccc(C(=O)O)cc3)cc21
126

Look up IC50 for this molecule: O=C([C@H]1CCCCN1C(=O)COc1ccccc1)N1Cc2ccc(OCC3CC3)cc2C1
263

Look up IC50 for this molecule: COc1ccc(Cl)cc1S(=O)(=O)N(C)c1cc(C(=O)Nc2ccn(CC(=O)O)n2)cc2c1OCO2
527

Look up IC50 for this molecule: COc1ccc(Cl)cc1S(=O)(=O)N1COc2ccc(C(=O)Nc3ccn(CC(=O)O)n3)cc21
135

Look up IC50 for this molecule: COc1ccc(C)cc1S(=O)(=O)N1CCCc2ccc(C(=O)Nc3nc(CC(=O)O)cs3)cc21
41.8

Look up IC50 for this molecule: COc1ccc(Cl)cc1S(=O)(=O)N1CCCCc2ccc(C(=O)Nc3ccc(C(=O)O)c(F)c3)cc21
134

Look up IC50 for this molecule: O=C(COc1ccccc1)N1CCCCC1c1ncc(-c2cccc([N+](=O)[O-])c2)s1 (stereo unspecified)
958

Look up IC50 for this molecule: COc1ccc(Cl)cc1S(=O)(=O)N(c1cc(C(=O)Nc2ccc(CC(=O)O)cc2)cc2c1OCO2)C(C)C
1090
